System: P. aeruginosa CDC-0054
protocol.summary: microbe, parasite or virus in culture
Assay type: cell-based
recorded.conditions: Pseudomonas aeruginosa, CDC0054, read-out: Minimum inhibitory concentration, P. aeruginosa CDC-0054
observable: MIC

# annotated cases, reported MIC shown
>  <compound>
CN(CCN1CCN(C(=O)N[C@@H](C(=O)N[C@H]2Cc3ccc(F)c(C(=O)O)c3OB2O)c2cc(F)c(O)c(O)c2Cl)C(=O)C1=O)Cc1cncc(O)c1

>  <MIC>
2 to 4 µg/mL

$$$$
>  <compound>
O=C(NCCCN1CCN(C(=O)N[C@H](C(=O)N[C@H]2Cc3ccc(F)c(C(=O)O)c3OB2O)c2cc(F)c(O)c(O)c2Cl)C1=O)Nc1ccc(O)cc1

>  <MIC>
> 128 µg/mL

$$$$
>  <compound>
O=C(O)c1cccc2c1OB(O)[C@@H](NC(=O)[C@H](NC(=O)N1CCN(Cc3cc(F)c(O)c(O)c3Cl)C(=O)C1=O)c1ccc(P(=O)(O)O)cc1)C2

>  <MIC>
< 1 µg/mL

$$$$

Batch request: MIC per item, same order as input.
1. O=C(NCCCN1CCN(C(=O)N[C@H](C(=O)N[C@H]2Cc3ccc(F)c(C(=O)O)c3OB2O)c2cc(F)c(O)c(O)c2Cl)C(=O)C1=O)c1ccc(O)cc1Cl (single isomer, unassigned)
2. O=C(O)c1c(F)ccc2c1OB(O)[C@@H](NC(=O)[C@@H](NC(=O)N1CCN(Cc3ccc(O)c(O)c3Cl)C(=O)C1=O)c1ccc(P(=O)(O)O)c(F)c1F)C2
3. O=C(O)c1c(F)ccc2c1OB(O)[C@@H](NC(=O)C(NC(=O)N1CCN(C3CCN(C(=O)Nc4ccc(F)c(O)c4F)CC3)C1=O)c1cc(F)c(O)c(O)c1Cl)C2 (stereo partly shown)
4. O=C(O)c1c(F)ccc2c1OB(O)[C@@H](NC(=O)C(NC(=O)N1CCN(C3CCN(C(=O)Nc4cccc(O)c4F)CC3)C(=O)C1=O)c1cc(F)c(O)c(O)c1Cl)C2 (stereo partly shown)

Outgoing:
< 1 µg/mL
< 1 µg/mL
< 1 µg/mL
2 to 4 µg/mL

---

For each record, write down the corresponding EC50.
assay.system: A. baumannii PBP2 (Acinetobacter baumannii, UniProt D0C8Z9)
Sequence (D0C8Z9 whole entry): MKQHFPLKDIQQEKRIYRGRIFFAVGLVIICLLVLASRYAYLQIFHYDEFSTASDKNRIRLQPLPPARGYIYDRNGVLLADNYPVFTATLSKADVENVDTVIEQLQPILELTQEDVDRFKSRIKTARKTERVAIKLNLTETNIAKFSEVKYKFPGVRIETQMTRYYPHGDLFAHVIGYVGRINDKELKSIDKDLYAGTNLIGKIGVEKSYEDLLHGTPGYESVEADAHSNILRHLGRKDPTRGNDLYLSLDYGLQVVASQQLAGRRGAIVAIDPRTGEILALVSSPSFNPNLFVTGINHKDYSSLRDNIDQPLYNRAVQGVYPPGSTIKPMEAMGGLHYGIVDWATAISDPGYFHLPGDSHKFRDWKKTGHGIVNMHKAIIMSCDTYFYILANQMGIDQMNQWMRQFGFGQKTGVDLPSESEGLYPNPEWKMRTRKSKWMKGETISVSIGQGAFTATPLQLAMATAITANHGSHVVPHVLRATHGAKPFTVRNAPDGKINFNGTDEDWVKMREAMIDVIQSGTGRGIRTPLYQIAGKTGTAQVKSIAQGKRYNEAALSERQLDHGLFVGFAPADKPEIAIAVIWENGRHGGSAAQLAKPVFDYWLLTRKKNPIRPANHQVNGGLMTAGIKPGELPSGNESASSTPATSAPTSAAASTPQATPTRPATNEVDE
protocol.summary: Bocillin-FL competition binding via gel filtration, A. baumannii PBP2

>  <molecule>
O=C(O)c1c(F)ccc2c1OB(O)[C@@H](NC(=O)C(NC(=O)N1CCN(C3CCN(Cc4ccc(O)c(F)c4)CC3)C1=O)c1cc(F)c(O)c(O)c1Cl)C2 (single isomer, unassigned)

>  <assay.system>
A. baumannii PBP2 (Acinetobacter baumannii, UniProt D0C8Z9)

>  <EC50>
10 to 50 µM

$$$$

Batch request: EC50 per item, same order as input.
1. O=C(NCCCN1CCN(C(=O)N[C@@H](C(=O)N[C@H]2Cc3ccc(F)c(C(=O)O)c3OB2O)c2cc(F)c(O)c(O)c2Cl)C1=O)c1cccc(O)c1
2. O=C(NCCCN1CCN(C(=O)NC(C(=O)N[C@H]2Cc3ccc(F)c(C(=O)O)c3OB2O)c2cc(F)c(O)c(O)c2Cl)C(=O)C1=O)c1cc(O)c(F)c(O)c1 (stereo partly drawn)
3. O=C(NCCCN1CCN(C(=O)NC(C(=O)N[C@H]2Cc3ccc(F)c(C(=O)O)c3OB2O)c2cc(F)c(O)c(O)c2Cl)C(=O)C1=O)c1cc(O)cc(F)c1 (stereo partly drawn)

Outgoing:
10 to 50 µM
< 10 µM
< 10 µM

Batch request: EC50 per item, same order as input.
1. O=C(O)c1c(F)ccc2c1OB(O)[C@@H](NC(=O)[C@H](NC(=O)N1CCN(C3CCN(Cc4cccnc4)CC3)C1=O)c1cc(F)c(O)c(O)c1Cl)C2
2. O=C(NCCCN1CCN(C(=O)N[C@@H](C(=O)N[C@H]2Cc3ccc(F)c(C(=O)O)c3OB2O)c2cc(F)c(O)c(O)c2Cl)C(=O)C1=O)c1cc(F)nc(F)c1 (racemic)
3. O=C(NCCCN1CCN(C(=O)NC(C(=O)N[C@H]2Cc3ccc(F)c(C(=O)O)c3OB2O)c2cc(F)c(O)c(O)c2Cl)C(=O)C1=O)Nc1ccc(O)cc1 (stereo partly drawn)
4. CS(=O)(=O)N1CCN(C(=O)NC(C(=O)N[C@H]2Cc3cccc(C(=O)O)c3OB2O)c2ccc(P(=O)(O)O)c(O)c2)C1=O (stereo partly drawn)
5. O=C(O)c1c(F)ccc2c1OB(O)[C@@H](NC(=O)[C@H](NC(=O)N1CCN(C3CCN(Cc4ccncc4)CC3)C1=O)c1cc(F)c(O)c(O)c1Cl)C2
6. O=C(O)c1c(F)ccc2c1OB(O)[C@@H](NC(=O)[C@H](NC(=O)N1CCN(C3CCN(C(=O)Nc4cc(O)ccc4Cl)CC3)C1=O)c1cc(F)c(O)c(O)c1Cl)C2 (single isomer, unassigned)
7. Nc1ccc(CN2CCC(N3CCN(C(=O)N[C@@H](C(=O)N[C@H]4Cc5ccc(F)c(C(=O)O)c5OB4O)c4cc(F)c(O)c(O)c4Cl)C3=O)CC2)cn1 (single isomer, unassigned)

Outgoing:
10 to 50 µM
10 to 50 µM
10 to 50 µM
50 to 250 µM
10 to 50 µM
< 10 µM
10 to 50 µM

---

System: N. gonorrhoeae WHO M
protocol.summary: Liquid broth MIC in Fastidious broth
recorded.conditions: Neisseria gonorrhoeae, read-out: Minimum Inhibitory Concentration (MIC), N. gonorrhoeae WHO M
For each record, write down the corresponding MIC.

# annotated cases, reported MIC shown
>  <molecule>
CC(C)(C)C(=O)NC(C(=O)N[C@H]1Cc2cccc(C(=O)O)c2OB1O)c1ccc(P(=O)(O)O)cc1 (stereo partly shown)

>  <assay.system>
N. gonorrhoeae WHO M

>  <result>
4 to 8 mg/L

$$$$
>  <molecule>
CS(=O)(=O)N1CCN(C(=O)N[C@@H](C(=O)N[C@H]2Cc3cccc(C(=O)O)c3OB2O)c2cc(F)c(P(=O)(O)O)c(F)c2)C1=O (single isomer, unassigned)

>  <assay.system>
N. gonorrhoeae WHO M

>  <result>
< 1 mg/L

$$$$
>  <molecule>
N#Cc1ccnc(C(=O)NC(C(=O)N[C@H]2Cc3cccc(C(=O)O)c3OB2O)c2ccc(P(=O)(O)O)cc2)c1 (stereo partly shown)

>  <assay.system>
N. gonorrhoeae WHO M

>  <result>
4 to 8 mg/L

$$$$
>  <molecule>
CS(=O)(=O)N1CCC[C@@H]1C(=O)N[C@H](C(=O)N[C@H]1Cc2cccc(C(=O)O)c2OB1O)c1ccc(P(=O)(O)O)cc1

>  <assay.system>
N. gonorrhoeae WHO M

>  <result>
4 to 8 mg/L

$$$$
>  <molecule>
O=C(NCCCN1CCN(C(=O)NC(C(=O)N[C@H]2Cc3ccc(F)c(C(=O)O)c3OB2O)c2cc(F)c(O)c(O)c2Cl)C(=O)C1=O)Nc1ccc(O)cc1 (stereo partly shown)

>  <assay.system>
N. gonorrhoeae WHO M

>  <result>
4 to 8 mg/L

$$$$
>  <molecule>
O=C(O)c1cccc2c1OB(O)[C@@H](NC(=O)[C@H](NC(=O)c1cnc3n(c1=O)CCS3)c1ccc(P(=O)(O)O)cc1)C2 (single isomer, unassigned)

>  <assay.system>
N. gonorrhoeae WHO M

>  <result>
4 to 8 mg/L

$$$$

Next molecule, MIC to be filled in.
Incoming: Supply reported MIC belonging to this molecule: Nc1ncc(C(=O)N[C@@H](C(=O)N[C@H]2Cc3cccc(C(=O)O)c3OB2O)c2ccc(P(=O)(O)O)cc2)s1 (racemic)
Outgoing: 1 to 2 mg/L

---

For each record, write down the corresponding MIC.
Tested on: A. baumannii CDC-0045
protocol.summary: microbe, parasite or virus in culture
Type: cell-based
recorded.conditions: Acinetobacter baumannii, CDC0045, read-out: MIC, A. baumannii CDC-0045

# annotated cases, reported MIC shown
>  <compound>
O=C(NCCCN1CCN(C(=O)NC(C(=O)N[C@H]2Cc3ccc(F)c(C(=O)O)c3OB2O)c2cc(F)c(O)c(O)c2Cl)C(=O)C1=O)c1ccc(O)cc1O (stereo partly drawn)

>  <observable>
MIC

>  <result>
< 1 µg/mL

$$$$
>  <compound>
O=C(O)c1c(F)ccc2c1OB(O)[C@@H](NC(=O)C(NC(=O)N1CCN(C3CCN(C(=O)Nc4ccc(F)c(O)c4F)CC3)C1=O)c1cc(F)c(O)c(O)c1Cl)C2 (stereo partly drawn)

>  <observable>
MIC

>  <result>
< 1 µg/mL

$$$$

Batch request: MIC per item, same order as input.
1. O=C(O)c1cccc2c1OB(O)[C@@H](NC(=O)C(NC(=O)N1CCN(Cc3cc(F)c(O)c(O)c3Cl)C(=O)C1=O)c1ccc(P(=O)(O)O)cc1)C2 (stereo partly drawn)
2. O=C(NCCCN1CCN(C(=O)NC(C(=O)N[C@H]2Cc3ccc(F)c(C(=O)O)c3OB2O)c2cc(F)c(O)c(O)c2Cl)C(=O)C1=O)c1c(F)ccc(O)c1Cl (stereo partly drawn)
3. O=C(NCCN1CCN(C(=O)NC(C(=O)N[C@H]2Cc3ccc(F)c(C(=O)O)c3OB2O)c2cc(F)c(O)c(O)c2Cl)C(=O)C1=O)c1ccccc1 (stereo partly drawn)
4. O=C(NCCCN1CCN(C(=O)N[C@H](C(=O)N[C@H]2Cc3ccc(F)c(C(=O)O)c3OB2O)c2cc(F)c(O)c(O)c2Cl)C(=O)C1=O)c1ccnc(F)c1F
5. O=C(O)c1c(F)ccc2c1OB(O)[C@@H](NC(=O)[C@H](NC(=O)N1CCN(C3CCN(C(=O)c4cc(O)cc(F)c4)CC3)C1=O)c1cc(F)c(O)c(O)c1Cl)C2 (single isomer, unassigned)
6. O=C(NCCN1CCN(C(=O)N[C@@H](C(=O)N[C@H]2Cc3ccc(F)c(C(=O)O)c3OB2O)c2cc(F)c(O)c(O)c2Cl)C(=O)C1=O)Nc1ccncc1
7. O=C(NCCS(=O)(=O)N1CCN(C(=O)N[C@@H](C(=O)N[C@H]2Cc3ccc(F)c(C(=O)O)c3OB2O)c2cc(F)c(O)c(O)c2Cl)C1=O)c1nccs1

Outgoing:
1. < 1 µg/mL
2. 2 to 4 µg/mL
3. 2 to 4 µg/mL
4. > 128 µg/mL
5. < 1 µg/mL
6. < 1 µg/mL
7. < 1 µg/mL
